Test system: P. falciparum stage V gametocytes
Set-up: BacTiter-Glo ATP luminescence viability of purified stage V gametocytes in 384-well plates, per cent inhibition versus DMSO
Details: 48 h, 5 µM; inhibitor
About 3,200 (25%) of roughly 13,000 compounds showed an effect of 50% or more. This is one part of the list.
Catalogue of compounds with associated % Inhibition
# value in %; strip the unit string

                                   compound                  system_under_test  result_number
0               Clc1ccc2c(N3CCCNCC3)ccnc2c1  P. falciparum stage V gametocytes          -27.2
1  CCC(C)NS(=O)(=O)c1ccc2nc(Nc3ccc(C)c(Cl)c3)n(C3CCCCC3)c2c1 (centres unmarked)  P. falciparum stage V gametocytes         -49.77
2  CCN1CCC(N2CCC(n3c(C)nc4cc(C(F)(F)F)ccc43)CC2)CC1  P. falciparum stage V gametocytes         0.4186
3        COc1ccc(Cc2cnc3nc(N)nc(N)c3c2C)cc1  P. falciparum stage V gametocytes          42.37
4  CN(C)C(CNc1ncnc2cc(Cl)ccc12)Cc1ccccc1 (centres unmarked)  P. falciparum stage V gametocytes       -0.01557
5  N#Cc1ccc(CN2CCCN(Cc3cccc(NC(=O)c4cc5ccccc5s4)c3)CC2)cc1  P. falciparum stage V gametocytes         -28.76
6  O=C(Nc1cccc(-c2ccc(CN3CCC(O)CC3)cc2)c1)c1ccc(Cl)cc1  P. falciparum stage V gametocytes         -6.492
7  Fc1cccc(COc2ccc(Nc3ncnc4sc(C#Cc5ncc[nH]5)cc34)cc2Cl)c1  P. falciparum stage V gametocytes         -1.353
8  COc1cc(OC)nc(C(Sc2ccc(NC(=O)c3cccs3)cc2)c2ccccc2)n1 (centres unmarked)  P. falciparum stage V gametocytes          44.54
9  CN(C)CCOc1cc(NC(=O)Nc2ccc(Oc3ccccc3)cc2)ccc1I  P. falciparum stage V gametocytes         -27.54

Reported % Inhibition of CCCCCCNC[C@@H](O)[C@H](Cc1ccccc1)NC(=O)c1cc(NCC)cc(N2CCCCS2(=O)=O)c1 : 27.85

Reported % Inhibition of Cc1cc(C)cc(CC(=O)N2CCC(n3c(C)nc4ccc(C)cc43)CC2)c1 : 80.51

Reported % Inhibition of O=C(Nc1cccc(CN2CCN(C(=O)c3ccccc3)CC2)c1)c1ccco1 : -15.6

Reported % Inhibition of CN(C)CCN(C)Cc1ccc(-c2ccc(NC(=O)c3ccc(Cl)cc3)cc2)cc1 : -35.6

Reported % Inhibition of O=C(Nc1cccc(CN2CCN(Cc3ccc(O)cc3)CC2)c1)c1cc2ccccc2s1 : 6.138

Reported % Inhibition of NS(=O)(=O)c1cccc(Nc2nccc(-c3c(-c4cccc(NC(=O)c5c(F)cccc5F)c4)nn4ccccc34)n2)c1 : -65.73

Reported % Inhibition of O=C1OC2(CCN(Cc3cccc(-c4ncc[nH]4)c3)CC2)CN1CCNCc1ccccc1 : -38.21
